target: P. falciparum apicoplast DNA polymerase (Pf-apPOL) (Plasmodium falciparum, UniProt Q8ILY1); assay: Fluorescence-based high-throughput DNA polymerase assay (molecular beacon), primary screen and dose-response; type: biochemical; conditions: DRC-2; read at 180'; concentration 40
Sequence (Q8ILY1 entry or part of it): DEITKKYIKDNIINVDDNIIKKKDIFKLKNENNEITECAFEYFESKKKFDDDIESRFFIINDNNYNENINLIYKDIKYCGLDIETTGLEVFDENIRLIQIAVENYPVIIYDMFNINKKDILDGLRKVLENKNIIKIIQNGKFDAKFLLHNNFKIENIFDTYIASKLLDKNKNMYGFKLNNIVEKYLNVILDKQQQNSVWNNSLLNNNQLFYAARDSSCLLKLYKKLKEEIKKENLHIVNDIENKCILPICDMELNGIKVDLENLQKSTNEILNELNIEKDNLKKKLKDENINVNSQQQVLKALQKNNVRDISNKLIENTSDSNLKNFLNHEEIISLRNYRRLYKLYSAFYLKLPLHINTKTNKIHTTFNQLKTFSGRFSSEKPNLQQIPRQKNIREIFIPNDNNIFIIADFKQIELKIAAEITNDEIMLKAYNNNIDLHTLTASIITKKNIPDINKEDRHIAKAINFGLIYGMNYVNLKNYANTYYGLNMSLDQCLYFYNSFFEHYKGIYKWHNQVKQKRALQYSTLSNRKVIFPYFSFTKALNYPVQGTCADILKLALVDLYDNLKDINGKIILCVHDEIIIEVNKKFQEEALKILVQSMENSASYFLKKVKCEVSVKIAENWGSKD
MEASURED_METRIC: % inhibition apPOL 180' 40 (%)

>>> reported_value("Cc1ccc(N2CCC(NC(=O)Cc3cccs3)C2=O)cc1C (centres unmarked) [Molecule 57, O=C(NC1CCN(C1=O)c1ccc(c(c1)C)C)Cc1cccs1]")
49
>>> reported_value("Cn1nc(-c2nnc(-c3ccccc3F)o2)c2c1CCN(C(=O)c1ccccc1Cl)C2 [Molecule 34]")
49
>>> reported_value("O=C(CCc1csc(NC(=O)Nc2ccccc2)n1)Nc1nc2ccccc2s1 [KU0177354]")
47
>>> reported_value("CC(C)CC(C(=O)O)N1C(=O)C2C3C=CC(C2C1=O)C1C(=O)N(C(CC(C)C)C(=O)O)C(=O)C31 (centres unmarked) [KU0193449]")
28
>>> reported_value("O=C(c1ccccc1)N1CCc2c(nc3cc(-c4ccccc4)[nH]n3c2=O)C1 [Molecule 30]")
52
>>> reported_value("Cn1nc(-c2nc(-c3ccccc3)no2)c2c1CCN(C(=O)Cc1cccs1)C2 [Molecule 58]")
52
>>> reported_value("C#CC(C=CC)OC(=O)c1ccccc1C(=O)O (centres unmarked) [Molecule 61, CC=CC(OC(=O)c1ccccc1C(=O)O)C#C]")
48
>>> reported_value("CC(=O)OCC1=C(C(=O)[O-])N2C(=O)[C@@H](NC(=O)Cc3cccs3)[C@H]2SC1.[Na+] [Molecule 73]")
29
>>> reported_value("Cc1ccsc1Cn1c(C)ccc1C [Molecule 70, Cc1ccsc1Cn1c(C)ccc1C]")
45
>>> reported_value("Cc1nc(C)c2c(n1)N(CC1CCCCC1)C(=O)CC2 [KU0218606]")
42
>>> reported_value("N#Cc1c(O)nc(N2CCCCC2)nc1-c1ccc2c(c1)OCO2 [KU0083146]")
53
